Values were extracted from patent US11840686B2.

Test system: human PKK mRNA
Assay: Dose-dependent antisense inhibition of human PKK in HepaRG cells, 0.19-5.00 uM (Example 5)
Format: cell-based
Details: HepaRG cells, 0.19-5.00 μM
Strand notation (5' to 3'): a small letter for the sugar, then the base; units joined by * are phosphorothioate-linked, units joined directly phosphodiester-linked; [ ] holds rarer units or linkages, { } end groups; capitals alone tell only the bases. e = 2'-O-(2-methoxyethyl) (MOE); [5mC] = 5-methylcytosine; d = 2'-deoxy (DNA)
So I've got a bunch of substances here, and I need their IC50 values.
Numbers only, in µM.

Please look up its IC50: 547632 (antisense eT*e[5mC]*eA*e[5mC]*eT*dG*dT*d[5mC]*d[5mC]*dT*dA*dT*dA*dT*d[5mC]*eA*e[5mC]*eT*e[5mC]*eT) [compound 547632]
1.6

# query: IC50 of entry 548770 (antisense eT*eA*eA*e[5mC]*dA*dG*dT*dA*dT*d[5mC]*dA*d[5mC]*dT*eG*eT*e[5mC]*e[5mC]) [compound 548770]
1.7

What does the data say about its IC50? Entry: 546889 (eG*eT*e[5mC]*e[5mC]*eT*dA*dT*dG*dT*d[5mC]*dA*d[5mC]*dT*dG*dT*eA*e[5mC]*e[5mC]*eT*eA; antisense) [compound 546889]
1.4

So what's the measured IC50 for this one? 547293 (antisense e[5mC]*eA*eT*e[5mC]*eT*dG*dG*d[5mC]*dA*dG*dT*dA*dT*dT*dG*eG*eG*e[5mC]*eA*eT) [compound 547293]
1.3

So what does the record say about IC50 for 546897 (eA*eG*eT*eA*eT*d[5mC]*dA*d[5mC]*dT*dG*dT*d[5mC]*d[5mC]*dT*dA*eT*eG*eT*e[5mC]*eA; antisense) [compound 546897] ?
0.8

For the 2 substances below, give their IC50 values.
1. 547294 (antisense e[5mC]*eT*e[5mC]*eA*eT*d[5mC]*dT*dG*dG*d[5mC]*dA*dG*dT*dA*dT*eT*eG*eG*eG*e[5mC]) [compound 547294]
2. 546870 (e[5mC]*eT*eG*eT*eA*d[5mC]*d[5mC]*dT*dA*dT*dA*dA*d[5mC]*dT*d[5mC]*eT*eA*eA*e[5mC]*eA; antisense) [compound 546870]

1. 0.6
2. 1

###

Provide the recorded percent inhibition of PKK mRNA, 0.11 μM for the entries that follow.
Test system: human PKK mRNA
Test: Dose-dependent antisense inhibition of human PKK in HepaRG cells, 0.11-3.00 uM (Example 6)
Type: cell-based
Settings: electroporation, 0.11 μM, approx. 16 hours, relative to untreated control cells
Strand notation (5' to 3'): a small letter for the sugar, then the base; units joined by * are phosphorothioate-linked, units joined directly phosphodiester-linked; [ ] holds rarer units or linkages, { } end groups; capitals alone tell only the bases. e = 2'-O-(2-methoxyethyl) (MOE); k = constrained ethyl (cEt); [5mC] = 5-methylcytosine; d = 2'-deoxy (DNA)
One number for each entry, in %.

Please review the entries below; each comes with its answer.
Return reported percent inhibition of PKK mRNA, 0.11 μM; argument: 548195 (eT*eT*k[5mC]*dT*dG*d[5mC]*d[5mC]*dA*dA*d[5mC]*dA*dG*dT*kT*kT*e[5mC]; antisense) [compound 548195]
5

Fill blank: measured percent inhibition of PKK mRNA, 0.11 μM of the substance 548180 (eT*e[5mC]*kA*dT*dG*dG*dA*dG*dA*dT*d[5mC]*dT*d[5mC]*kA*kG*eT; antisense) [compound 548180] is ____.
11

Report percent inhibition of PKK mRNA, 0.11 μM for each item below.
1. 548424 (antisense e[5mC]*eA*kG*dT*dA*dT*d[5mC]*dA*d[5mC]*dT*dG*dT*d[5mC]*k[5mC]*kT*eA) [compound 548424]
2. 547943 (eT*eG*kG*dT*dG*dT*dG*d[5mC]*d[5mC]*dA*d[5mC]*dT*dT*kT*k[5mC]*eA; antisense) [compound 547943]
3. 547998 (antisense e[5mC]*eT*kT*dG*dT*dG*dT*d[5mC]*d[5mC]*d[5mC]*dA*dT*dA*k[5mC]*kG*e[5mC]) [compound 547998]
4. 547997 (antisense eT*eT*kG*dT*dG*dT*d[5mC]*d[5mC]*d[5mC]*dA*dT*dA*d[5mC]*kG*k[5mC]*eA) [compound 547997]

[17, 33, 55, 39]

###

Tested on: human PKK mRNA
Assay: Antisense inhibition of human PKK mRNA in HepaRG cells, 1,000 nM, MOE/deoxy/cEt oligonucleotides (Example 3)
Format: cell-based
Settings: PKK mRNA, HepaRG cells, 1,000 nM antisense oligonucleotide; Table 31
Strand notation (5' to 3'): a small letter for the sugar, then the base; units joined by * are phosphorothioate-linked, units joined directly phosphodiester-linked; [ ] holds rarer units or linkages, { } end groups; capitals alone tell only the bases. e = 2'-O-(2-methoxyethyl) (MOE); k = constrained ethyl (cEt); [5mC] = 5-methylcytosine; d = 2'-deoxy (DNA)
READOUT TYPE: % inhibition (%)
Answers are plain numbers, in %.

Example cases with answers are listed next.
I am curious: what % inhibition value has been reported for 548618 (antisense eG*eT*kT*dG*dG*dT*dG*dG*d[5mC]*dG*dG*dG*dA*kT*k[5mC]*eG) [compound 548618] ?
18

# get_value(readout='% inhibition', item= 548623 (antisense eG*e[5mC]*kT*dG*dT*d[5mC]*dA*d[5mC]*dT*dT*dA*dA*dG*k[5mC]*k[5mC]*eA) [compound 548623] )
16

What value of % inhibition has been recorded for this entry: 531231 (eT*eA*eT*e[5mC]*eA*d[5mC]*dT*dG*dT*dA*d[5mC]*dT*dA*dG*dT*eT*eT*e[5mC]*e[5mC]*eT) [compound 531231]
48

Which % inhibition reading was recorded for the substance 548642 (antisense eG*e[5mC]*kG*dG*d[5mC]*dA*dG*dT*dA*dG*dT*dG*dA*kA*kT*e[5mC]) [compound 548642] ?
23

# % inhibition lookup, item 548668 (antisense eG*eG*kG*dA*dG*d[5mC]*dT*dT*dT*d[5mC]*dA*dT*dG*kG*k[5mC]*eT) [compound 548668]
68

Param item = 548634 (antisense eG*e[5mC]*k[5mC]*dT*dT*dA*dT*dT*d[5mC]*dT*dG*dT*dG*k[5mC]*kA*eA) [compound 548634] ; retrieve measured % inhibition.
0

Provide the reported % inhibition of each entry below, same order.
1. 548644 (antisense eA*eA*k[5mC]*dT*dG*dG*dG*d[5mC]*dA*dG*dT*d[5mC]*d[5mC]*kT*kT*e[5mC]) [compound 548644]
2. 548640 (antisense eG*eA*kA*dT*dG*dT*dT*dG*d[5mC]*dT*dG*dT*d[5mC]*k[5mC]*k[5mC]*eA) [compound 548640]
3. 548630 (antisense eT*eG*kG*dT*d[5mC]*d[5mC]*d[5mC]*dA*dA*dA*dT*dT*dG*kG*kA*eG) [compound 548630]
4. 548624 (antisense eT*e[5mC]*kT*dA*dG*dG*dG*d[5mC]*d[5mC]*dA*d[5mC]*dA*d[5mC]*k[5mC]*kT*e[5mC]) [compound 548624]
5. 548655 (antisense e[5mC]*e[5mC]*k[5mC]*dG*dA*dG*dG*dT*d[5mC]*dA*d[5mC]*dA*dT*kA*kA*eT) [compound 548655]
6. 548637 (antisense eG*e[5mC]*kT*dG*dA*dT*d[5mC]*dT*dT*d[5mC]*dT*dA*dA*kT*kG*e[5mC]) [compound 548637]

1: 14; 2: 32; 3: 33; 4: 24; 5: 56; 6: 38

###

System: human PKK mRNA
Test: Antisense inhibition of human PKK mRNA in HepaRG cells, 3,000 nM (Example 1)
Type: cell-based
Conditions: Table 4; HepaRG cells, electroporation with 3,000 nM antisense oligonucleotide, approx. 24 hours; PKK mRNA by RT-PCR (RTS3454), relative to untreated control cells
Strand notation (5' to 3'): a small letter for the sugar, then the base; units joined by * are phosphorothioate-linked, units joined directly phosphodiester-linked; [ ] holds rarer units or linkages, { } end groups; capitals alone tell only the bases. e = 2'-O-(2-methoxyethyl) (MOE); [5mC] = 5-methylcytosine; d = 2'-deoxy (DNA)
READOUT TYPE: % inhibition (%)
Numbers only, in %.

Request the reported % inhibition associated with 531222 (eG*eG*e[5mC]*eA*eA*dG*d[5mC]*dT*dG*dT*dA*d[5mC]*dA*dA*dG*eA*eA*eA*eA*eA; antisense) [compound 531222]
19

Field request: % inhibition | item: 531187 (eA*eT*e[5mC]*eT*eA*dT*dT*dG*dG*dT*dT*d[5mC]*dA*dG*dG*eA*eG*e[5mC]*e[5mC]*eA; antisense) [compound 531187]
72

Query: % inhibition; subject: 531196 (eT*eT*eG*eA*eG*dT*d[5mC]*dA*dG*dA*d[5mC]*dA*dT*d[5mC]*d[5mC]*eT*eG*eT*eG*eA; antisense) [compound 531196]
38

State recorded % inhibition for all listed substances.
1. 531213 (e[5mC]*eA*eA*eA*eA*dT*dT*dA*dA*dT*dT*dG*dT*dG*d[5mC]*eA*eT*eA*eA*eT; antisense) [compound 531213]
2. 531167 (antisense e[5mC]*eA*eA*eG*eA*dA*dA*d[5mC]*d[5mC]*dA*d[5mC]*d[5mC]*dA*dA*dA*eG*eG*eA*eA*eG) [compound 531167]
3. 531199 (e[5mC]*eT*eT*eT*eG*dA*dA*dT*dA*dG*dA*dA*dA*dA*dT*eG*eA*e[5mC]*eT*eA; antisense) [compound 531199]

13
37
1

Each substance below has a reported value. Please supply its % inhibition.
1. 531200 (e[5mC]*eA*eA*eA*eA*dT*d[5mC]*dA*d[5mC]*dA*dA*dG*dT*dT*d[5mC]*eT*eA*eG*eA*eT; antisense) [compound 531200]
2. 531182 (antisense eA*eT*eA*eA*eT*d[5mC]*dA*dT*dG*dA*dT*dT*dT*dA*dT*eT*eT*eT*eG*e[5mC]) [compound 531182]
3. 531204 (e[5mC]*eT*eT*eG*eT*dA*dG*dT*d[5mC]*dT*dG*d[5mC]*dA*d[5mC]*dT*eT*eA*eA*eT*eG; antisense) [compound 531204]
4. 531166 (antisense eA*eG*eA*e[5mC]*eA*dG*dT*dA*dA*dA*d[5mC]*dA*dA*dA*dA*eT*e[5mC]*eA*eG*eG) [compound 531166]
5. 531163 (antisense eT*e[5mC]*eA*eG*e[5mC]*dA*dG*dA*dA*dA*dT*d[5mC]*dA*dT*dG*eT*eA*eG*eG*e[5mC]) [compound 531163]
6. 531231 (eT*eA*eT*e[5mC]*eA*d[5mC]*dT*dG*dT*dA*d[5mC]*dT*dA*dG*dT*eT*eT*e[5mC]*e[5mC]*eT) [compound 531231]
7. 531191 (eA*eA*eG*eT*eG*dT*dA*dT*dT*dG*d[5mC]*d[5mC]*dT*dA*dG*eA*eT*eT*eT*e[5mC]; antisense) [compound 531191]

51
34
60
12
60
94
37

// for each substance in input: emit % inhibition
1. 531218 (eG*eA*eT*eA*eA*dT*dT*d[5mC]*dT*dT*dT*dT*d[5mC]*dA*d[5mC]*eA*eG*eA*e[5mC]*eA; antisense) [compound 531218]
2. 531212 (eA*e[5mC]*eA*eT*e[5mC]*dA*dG*dT*dA*dG*d[5mC]*dT*dT*d[5mC]*dA*eG*eA*eT*eG*eT; antisense) [compound 531212]
3. 531225 (eA*e[5mC]*eA*e[5mC]*eT*dT*dG*dT*dA*d[5mC]*d[5mC]*d[5mC]*d[5mC]*dA*dT*eA*e[5mC]*eA*eT*e[5mC]; antisense) [compound 531225]
4. 531176 (antisense eT*eT*eA*eT*eG*dA*dA*dA*d[5mC]*d[5mC]*dT*d[5mC]*dT*dT*dG*eA*eT*eT*eT*eG) [compound 531176]
5. 531232 (e[5mC]*eT*eG*eT*eA*d[5mC]*dT*dA*dG*dT*dT*dT*d[5mC]*d[5mC]*dT*eA*eT*eA*eA*e[5mC]; antisense) [compound 531232]
6. 531192 (eG*eA*eG*eT*eG*d[5mC]*d[5mC]*dA*dT*d[5mC]*dT*dT*d[5mC]*dT*d[5mC]*eT*eG*e[5mC]*eA*e[5mC]; antisense) [compound 531192]
7. 531211 (eT*eT*eG*eA*eT*dG*dT*d[5mC]*dA*dG*d[5mC]*dA*d[5mC]*dT*dG*eT*eT*eG*eA*e[5mC]; antisense) [compound 531211]
8. 531206 (eG*eA*eA*eA*eT*dG*dT*d[5mC]*dT*dA*dG*d[5mC]*dA*dT*dT*eT*eT*e[5mC]*eT*eA; antisense) [compound 531206]

1. 72
2. 56
3. 45
4. 0
5. 85
6. 61
7. 77
8. 28

Can you look up the measured % inhibition of 531219 (e[5mC]*eT*eT*e[5mC]*eT*d[5mC]*dT*dA*dT*d[5mC]*dT*d[5mC]*d[5mC]*d[5mC]*dA*eG*eT*eG*eT*eT; antisense) [compound 531219] for me?
61
